Hello, the source for this data is patent US12172965B2, in case you need it.

Tested on: SKOV3 (ovarian tumour)
Experiment: Antiproliferative activity (IC50), CellTiter Glo, SKOV3
Type: cell-based, human
Details: Homo sapiens, SK-OV-3; nM given only in VB118 cells; read-out: SKOV-3 (antiproliferative activity, Table 6)
Quantity name: IC50 (nM)

Compound | Target entity | IC50, nM
COc1ccc(N(C)c2cc(C#N)nc3ccccc23)cc1N [ICQN-1] | SKOV3 (ovarian tumour) | 0.44
CCOc1ccc(N(C)c2cc(C#N)nc3ccccc23)cc1N [ICQN-2] | SKOV3 (ovarian tumour) | 0.59

###

Test system: HCT116 (colorectal tumour)
Experiment: Antiproliferative activity (IC50), CellTiter Glo, HCT116
Assay type: cell-based, human
Details: Homo sapiens, HCT-116; comparative data 13b / ICQN-1; unit inferred; read-out: HCT116 (antiproliferative activity, Table 3)
Quantity name: IC50 (nM)

a: COc1ccc(N(C)c2cc(C#N)nc3ccccc23)cc1N
b: COc1ccc(N(C)c2cc(C)nc3ccccc23)cc1N [Compound 13b, reference compound]
Endpoint returns whichever of a and b has the numerically higher IC50. Which one? Tell me its label.
b

###

System: K562R (chronic myeloid leukemia)
Assay: Antiproliferative activity (IC50), CellTiter Glo, K562R
Format: cell-based
Details: Homo sapiens, K-562R; comparative data 13b / ICQN-1; unit inferred; read-out: K562R (antiproliferative activity, Table 3)
pIC50: −log10 of the molar value.
Quantity name: pIC50

P: COc1ccc(N(C)c2cc(C#N)nc3ccccc23)cc1N
Q: COc1ccc(N(C)c2cc(C)nc3ccccc23)cc1N [Compound 13b, reference compound]
Identify the entry with the smaller pIC50: P or Q . Pick one and reply with its label.
Q
(Q: 8.44, P: 9.33)

###

Tested on: A549 (non-small cell lung cancer)
Test: Antiproliferative activity (IC50), CellTiter Glo, A549
Format: cell-based
Conditions: Homo sapiens, A549; free, unconjugated; 72 hours of treatment; read-out: A549 IC50
Quantity name: pIC50
// pIC50 here means minus log10 of the molar concentration (mol/L)

Give its pIC50 value. Item: `COc1ccc(N(C)c2cc(C#N)nc3ccccc23)cc1N`
9.14
